Data origin, for the record: ChEMBL document CHEMBL3301361

Assay: physchem
Details: pH 7.4 buffer
endpoint: solubility thermodynamic (µM)
Kindly answer with a numeric value in µM, unit omitted.

### Prompt Which solubility thermodynamic value belongs to CC(C)(C)NS(=O)(=O)c1cncc(-c2ccc3nc(NC(=O)NCC(=O)N4CCCC4)nn3c2)c1 ?
### Response 6.6

### Prompt Subsequent entry: N#CC1(NC(=O)[C@@H]2CCCC[C@H]2C(=O)N2CCN(c3nc(-c4ccccc4)cs3)CC2)CC1
### Response 95.5

### Prompt Subsequent entry: COc1cc(CO)cc(N(C)c2ccnc(Nc3cc(N4CCOCC4)cc(N4CCOCC4)c3)n2)c1
### Response 195

### Prompt Subsequent entry: CS(=O)(=O)c1ccc2c(c1)cc(C(=O)O)n2Cc1ccc(Cl)c(Cl)c1
### Response 1100

### Prompt Subsequent entry: COc1ccc(-c2csc(NC(=O)c3c(C)noc3C)n2)cc1OC
### Response 2

### Prompt Subsequent entry: COc1cc(N2CC3COCC(C2)N3)ccc1Nc1ncc(Cl)c(-c2cnc3ccccn23)n1
### Response 2.6

### Prompt Subsequent entry: O=S(=O)(c1ccc(N2CCC(c3ccc(Cl)cc3)=N2)cc1)N(CCO)CCO
### Response 2.2

### Prompt Subsequent entry: c1ccc(Nc2ccccc2)cc1
### Response 178

### Prompt Subsequent entry: CCCSc1ncccc1C(=O)N(C)C1CCCCC1
### Response 955

### Prompt Subsequent entry: c1ccc(CSc2nnc(-c3ccco3)c(-c3ccco3)n2)cc1
### Response 5.2

* * *

Assay: in vitro
Conditions: human, plasma
So I've got a bunch of compounds here, and I need their fraction unbound at 5 h values.
// response body must contain only the number

### Prompt Which fraction unbound at 5 h value belongs to Cc1nn(-c2ccccc2)c(N)c1-c1ccccc1 ?
### Response 0.013

### Prompt Subsequent entry: C[S+]([O-])Cc1ccc(C(=O)Nc2cccnc2C(=O)NCC2CCC2)c2ccccc12 (centres undefined)
### Response 0.013

### Prompt Subsequent entry: Cc1ccc(C(=O)N(CCCN)[C@H](c2nc3cc(Cl)ccc3c(=O)n2Cc2ccccc2)C(C)C)cc1
### Response 0.0081

### Prompt Subsequent entry: CC(C)Cc1c(C(=O)C(N)=O)c2c(OCC(=O)O)cccc2n1Cc1ccccc1
### Response 0.0313

### Prompt Subsequent entry: O=c1n(CCCN2CCN(c3cccc(Cl)c3)CC2)nc2ccccn12
### Response 0.03

### Prompt Subsequent entry: C[C@@H]1CN(Cc2ccc(F)cc2)CCN1C(=O)COc1ccc(Cl)cc1NC(N)=O [BX 471 FREE BASE]
### Response 0.0205

### Prompt Subsequent entry: O=c1[nH]c2ccccc2n1CCCN1CCC(n2c(=O)[nH]c3cc(Cl)ccc32)CC1
### Response 0.0335

### Prompt Subsequent entry: O=C1COc2ccc(CNC3CCN(CCN4C(=O)COc5ccc(Br)cc54)CC3)nc2N1
### Response 0.0262

### Prompt Subsequent entry: CC(C)Cc1c(C(=O)C(N)=O)c2c(OCC(=O)NS(C)(=O)=O)cccc2n1Cc1ccccc1
### Response 0.0251

* * *

So I've got a bunch of compounds here, and I need their logD values.
Assay: physchem
Conditions: octan-1-ol/water, pH 7.4
// response body must contain only the number

### Prompt Which logD value belongs to CS(=O)(=O)c1ccc([C@@H](O)[C@@H](CF)NC(=O)C(Cl)Cl)cc1 ?
### Response 0.44

### Prompt Subsequent entry: CN(C)C(=O)N[C@H]1CC[C@H](CCN2[C@@H]3CC[C@H]2C[C@@H](Oc2cccc(C(N)=O)c2)C3)CC1
### Response 0.12

### Prompt Subsequent entry: COc1ccc(-n2cnc3cc(NS(=O)(=O)c4ccccc4)ccc32)cc1
### Response 3.7

### Prompt Subsequent entry: O=C1COc2ccc(CNC3CCN(CCN4C(=O)COc5ccc(OC(F)(F)F)cc54)CC3)nc2N1
### Response 1.82

### Prompt Subsequent entry: CC(C)(C)c1ccc(C2=NC(=O)C(CC(=O)O)S2)cc1 (centres undefined)
### Response -0.1

### Prompt Subsequent entry: Cc1ccnc(NCc2ccc(Cl)cc2)c1
### Response 3.6

### Prompt Subsequent entry: CN(C)C(=O)c1ccc(C(=C2CCN(Cc3cscn3)CC2)c2cccc3cccnc23)cc1
### Response 2.3

### Prompt Subsequent entry: CN(CCO)C(=O)c1ccc([C@H](c2cccc(NC(=O)C3CC3)c2)N2CCN(Cc3ccc(F)cc3)CC2)cc1
### Response 3.38

### Prompt Subsequent entry: CCN1CCN(C(=O)c2cc3cc(F)ccc3[nH]2)CC1
### Response 2.28

### Prompt Subsequent entry: CCC(COC(=O)c1cc(OC)c(OC)c(OC)c1)(c1ccccc1)N(C)C (centres undefined)
### Response 3.77

### Prompt Subsequent entry: CC(=O)Nc1nc(-c2ccccc2)ns1
### Response 2.8

### Prompt Subsequent entry: Clc1ccc(C2CC=CCNC2)cc1Cl (centres undefined)
### Response 1.86

### Prompt Subsequent entry: CCN(C)C(=O)c1ccc(C(=C2CCN(Cc3ccc(F)cc3)CC2)c2ccccc2NC(C)=O)cc1
### Response 2.79

### Prompt Subsequent entry: COCCCOc1ccnc(C[S+]([O-])c2nc3ccccc3[nH]2)c1C (centres undefined)
### Response -0.69

### Prompt Subsequent entry: CCCNC(=O)c1nnc2c(-c3cnccc3OC)cccc2c1N
### Response 2.83

### Prompt Subsequent entry: O=C(Nc1ccncc1)c1cccc2ccccc12
### Response 3.1

### Prompt Subsequent entry: CC(C)(C)OC(=O)c1ncn2c1[C@@H]1CCCN1C(=O)c1c(Br)cccc1-2
### Response 2.48

### Prompt Subsequent entry: CN(C)CC/C=C1\c2ccccc2Sc2ccc(Cl)cc21
### Response 3.42

### Prompt Subsequent entry: O=C(c1ccc(C(=C2CCN(Cc3cscn3)CC2)c2cccc3cccnc23)cc1)N1CCOCC1
### Response 2.12

### Prompt Subsequent entry: O=C(Oc1ccc(Br)cc1)N1CCN2CCC1CC2
### Response 1.58

### Prompt Subsequent entry: COc1cc2c(c(OC)c1OC)-c1ccc(OC)c(=O)cc1[C@@H](NC(C)=O)CC2
### Response 0.82

### Prompt Subsequent entry: COc1ccc(C=C2SC(=O)NC2=O)cc1OC
### Response 1.17

### Prompt Subsequent entry: CCCCCCCCCC(=O)N[C@@H](Cc1c[nH]c2ccccc12)C(=O)N[C@H](CC(N)=O)C(=O)N[C@@H](CC(=O)O)C(=O)N[C@@H]1C(=O)NCC(=O)N[C@@H](CCCN)C(=O)N[C@@H](CC(=O)O)C(=O)N[C@H](C)C(=O)N[C@@H](CC(=O)O)C(=O)NCC(=O)N[C@H](CO)C(=O)N[C@@H]([C@H](C)CC(=O)O)C(=O)N[C@@H](CC(=O)c2ccccc2N)C(=O)O[C@@H]1C
### Response -0.94

### Prompt Subsequent entry: Clc1ccc([C@]23CNC[C@H]2C3)cc1Cl
### Response 1.96

### Prompt Subsequent entry: CCCCC1(CC)C(=O)NC(=O)NC1=O
### Response 1.5

### Prompt Subsequent entry: CC(C)N(CCC(C(N)=O)(c1ccccc1)c1ccccn1)C(C)C (centres undefined) [DISOPYRAMIDE]
### Response -0.54

### Prompt Subsequent entry: Cc1ccc(CN2[C@@H]3CC[C@H]2C[C@@H](Oc2cccc(C(N)=O)c2)C3)s1
### Response 2.39

### Prompt Subsequent entry: CCOC(=O)c1ncn2c1CN(C)C(=O)c1cc(F)ccc1-2
### Response 1.1

### Prompt Subsequent entry: CCCNC(=O)c1nnc2c(-c3cncc(C(=O)N4CCC4)c3)cccc2c1N
### Response 2.79

### Prompt Subsequent entry: Oc1ncc(NCc2ccccc2)c(O)n1
### Response 0.82

### Prompt Subsequent entry: COc1ccc2c(c1)N(CCN1CCC(NCc3cc4c(cn3)OCCO4)CC1)C(=O)CO2
### Response 1.24

### Prompt Subsequent entry: CN1CC=CCC(c2ccc(Cl)c(Cl)c2)C1 (centres undefined)
### Response 3.32

### Prompt Subsequent entry: Cc1cc(O)nc(-n2nc(C)c(Oc3ccccc3O)c2C)n1
### Response 1.4

### Prompt Subsequent entry: c1cncc(-c2ccc(-c3nnc(C4CN5CCC4CC5)o3)o2)c1 (centres undefined)
### Response 1.2

### Prompt Subsequent entry: O=C(Nc1ccccc1F)NC1N=C(c2ccccc2)c2ccccc2NC1=O (centres undefined)
### Response 3.8

### Prompt Subsequent entry: O=C1C=CC(=O)c2c(O)ccc(O)c21
### Response 1.91

### Prompt Subsequent entry: O=c1[nH]c2ccccc2n1CCCN1CCC(n2c(=O)[nH]c3cc(Cl)ccc32)CC1
### Response 3.45

### Prompt Subsequent entry: CC(C)[C@H]1C(=O)N[C@H](CO)Cc2ccccc2N1C
### Response 2.03

### Prompt Subsequent entry: C[C@H]1CN(Cc2cc(Cl)ccc2OCC(=O)O)CCN1C(=O)Cc1ccccc1
### Response 0.18
